Exercise: for every item that follows, state its recorded melting point.
Lab book: enter the figure in °C, no units written.

Request: Param item = CCC1(CC)C=CC(=O)c2c(O)c(C)cc(O)c21 ; retrieve measured melting point.
Result: 198.2

Request: What does the data say about its melting point? Entry: Cc1cc(O)c2c(c1O)C(=O)C=CC2(C)C
Result: 204

###

- targetUnderTest: α-glucosidase
- protocol: α-glucosidase inhibitory activity (p-nitrophenyl α-D-glucopyranoside substrate)
- particulars: pH 6.9, 37 °C, 15 min; mean ± SD of three experiments; read-out: Inhibition of α-Glucosidase Activity IC50
valueKind: IC50

Request: Form field - read-out: IC50; system: α-glucosidase; submitted item: Cc1cc(O)c2c(c1O)C(=O)C=CC2(C)C [Compound 3]
Result: > 500 µM

Request: // lookup IC50 | system=α-glucosidase | key= CCC1(CC)C=CC(=O)c2c(O)c(C)c(C)c(O)c21 [Compound 9]
Result: > 500 µM

Request: What is its IC50 for α-glucosidase? Entry: CCC1(CC)C=CC(=O)c2c(O)cc(C)c(O)c21 [Compound 7]
Result: 110 µM

Request: Given the entry Cc1c(C)c(O)c2c(c1O)C(=O)C=CC2(C)C [Compound 4] , what IC50 was observed with α-glucosidase?
Result: 245 µM

Request: Return IC50 measured with α-glucosidase given this compound: CCC1(CC)C=CC(=O)c2c(O)c(C)cc(O)c21 [Compound 8]
Result: 60 µM

Request: Test system α-glucosidase; read-out IC50; what value for CCC1(CC)C=C(C)C(=O)c2c(O)c(C)c(C)c(O)c21 [Compound 10] ?
Result: 78 µM

Request: Please tell me: IC50 of Cc1cc(O)c2c(c1O)C(C)(C)C=CC2=O [Compound 2] , system α-glucosidase?
Result: 140 µM

Request: Could you share what IC50 was measured for CC1=CC(C)(C)c2c(O)c(C)c(C)c(O)c2C1=O [Compound 5] , tested on α-glucosidase?
Result: 103 µM

Request: Look up IC50 with α-glucosidase for this compound: CCC1(CC)C=CC(=O)c2c(O)ccc(O)c21 [Compound 6]
Result: 195 µM

###

- targetUnderTest: α-glucosidase
- protocol: α-glucosidase inhibitory activity (p-nitrophenyl α-D-glucopyranoside substrate)
- Format: biochemical
- particulars: pIC50 = −log[IC50]; Figure 2A
valueKind: pIC50 (α-glucosidase)
The answer should be a number; do not append a unit.

Request: I am curious: what pIC50 (α-glucosidase) value has been reported for CCC1(CC)C=CC(=O)c2c(O)ccc(O)c21 [Compound 6] ?
Result: 3.71

Request: What value of pIC50 (α-glucosidase) has been recorded for this entry: Cc1cc(O)c2c(c1O)C(C)(C)C=CC2=O [Compound 2]
Result: 3.85

Request: Which pIC50 (α-glucosidase) reading was recorded for the compound CCC1(CC)C=CC(=O)c2c(O)c(C)cc(O)c21 [Compound 8] ?
Result: 4.20

Request: Could you tell me which pIC50 (α-glucosidase) is on file for Cc1c(C)c(O)c2c(c1O)C(=O)C=CC2(C)C [Compound 4] ?
Result: 3.61

Request: What measured pIC50 (α-glucosidase) goes with CC1(C)C=CC(=O)c2c(O)ccc(O)c21 [Compound 1] ?
Result: 3.72

Request: So what's the measured pIC50 (α-glucosidase) for this one? CCC1(CC)C=C(C)C(=O)c2c(O)c(C)c(C)c(O)c21 [Compound 10]
Result: 4.10

Request: State the recorded pIC50 (α-glucosidase) for this entry: CCC1(CC)C=CC(=O)c2c(O)c(C)c(C)c(O)c21 [Compound 9]
Result: 3.29

Request: // query pIC50 (α-glucosidase) value for entry Cc1cc(O)c2c(c1O)C(=O)C=CC2(C)C [Compound 3]
Result: 3.26

Request: // query pIC50 (α-glucosidase) value for entry CC1=CC(C)(C)c2c(O)c(C)c(C)c(O)c2C1=O [Compound 5]
Result: 3.98

Request: I would be grateful if you could share the reported pIC50 (α-glucosidase) for CCC1(CC)C=CC(=O)c2c(O)cc(C)c(O)c21 [Compound 7] .
Result: 3.96
